Property: pEC50; scope: individual compounds
target: ligand-binding domain (LBD) of LXRβ (Homo sapiens, UniProt P55055, DUP175-175); construct: LXRβ (amino acids 156-461); expressed in transfected cells; host or cells: HEK293; experiment: LXR Gal4 reporter transient transfection assay (LBD-M2H Gal4β); format: cell-based; details: HEK293 cells, LXRβ LBD; read-out: LBD-M2H Gal4β (EC50 range)
Sequence (P55055 with tags, fused parts or gaps DUP175-175 limits assumed): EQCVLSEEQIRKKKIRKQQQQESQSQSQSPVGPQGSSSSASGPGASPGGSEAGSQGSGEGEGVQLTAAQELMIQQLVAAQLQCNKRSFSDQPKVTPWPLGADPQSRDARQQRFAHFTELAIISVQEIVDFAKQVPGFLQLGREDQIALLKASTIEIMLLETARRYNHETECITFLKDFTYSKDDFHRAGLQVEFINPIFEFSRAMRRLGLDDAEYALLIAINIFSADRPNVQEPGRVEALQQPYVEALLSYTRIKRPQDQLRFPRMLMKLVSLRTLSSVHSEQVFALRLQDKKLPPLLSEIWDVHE
pEC50: −log10 of the molar value.

Answered examples (3):
{"compound": "N#Cc1sccc1-c1c(-c2cccs2)n(S(=O)(=O)c2cccc3ccccc23)c2ccccc12 [1/27]", "systemTested": "ligand-binding domain (LBD) of LXRβ (Homo sapiens, UniProt P55055, DUP175-175)", "endpointResult": "> 7.00"}
{"compound": "COc1ccc(S(=O)(=O)n2c(-c3ccccc3)c(-c3c(C#N)sc4ccccc34)c3ccccc32)cc1 [20/18]", "systemTested": "ligand-binding domain (LBD) of LXRβ (Homo sapiens, UniProt P55055, DUP175-175)", "endpointResult": "> 7.00"}
{"compound": "N#Cc1sccc1-c1c(-c2cccc(C3CC3C(=O)O)c2)n(S(=O)(=O)c2ccc(Cl)cc2)c2ccc(F)cc12 (stereo not shown) [3/24]", "systemTested": "ligand-binding domain (LBD) of LXRβ (Homo sapiens, UniProt P55055, DUP175-175)", "endpointResult": "> 7.00"}

Turning to the following compound.
Look up pEC50: COc1ccc(S(=O)(=O)n2c(-c3ccccc3)c(C3=C(C#N)c4ccccc4CC3)c3ccccc32)cc1 [20/19]
6.00 to 7.00
